Data credit: the supplement of paper PMC12137928

Tested on: HCT116
assay conditions: 72 h; ICRF193 200 nM
Where a name gives a salt, the structure may show the parent alone.
observable: IC50 cell viability

Solved cases below.
CCC(C)n1ncn(-c2ccc(N3CCN(c4ccc(OCC5COC(Cn6cncn6)(c6ccc(Cl)cc6Cl)O5)cc4)CC3)cc2)c1=O (centres undefined) [Itraconazole]: > 45.8 µM
C#C[C@]1(O)CC[C@H]2[C@@H]3CCc4cc(OC)ccc4[C@H]3CC[C@@]21C [Mestranol]: > 45.8 µM
CC1=CC(=C(c2ccc(N)cc2)c2ccc(N)cc2)C=CC1=N [C.I. Basic Violet 14]: 5.17 µM
CCCCN(CCCC)C(=S)[S-].CCCCN(CCCC)C(=S)[S-].[Zn+2] [Zinc dibutyldithiocarbamate]: > 45.8 µM
O=C1Nc2ccc(Cl)cc2[C@@](C#CC2CC2)(C(F)(F)F)O1 [Efavirenz]: 25.9 µM
C=CCCCCCCCCC(=O)O[C@H]1CC[C@H]2[C@@H]3CCC4=CC(=O)C=C[C@]4(C)[C@H]3CC[C@]12C [Boldenone Undecylenate]: > 45.8 µM
Nc1ccc(S(=O)(=O)NC(=O)c2ccccc2)cc1 [Sulfabenzamide]: > 45.8 µM
CC([C@H](O)c1ccccc1)N(C)C (stereo partly drawn) [N-METHYL (-)EPHEDRINE [1R,2S]]: > 45.8 µM
Cc1c[nH]c2ccccc12 [3-Methylindole]: > 45.8 µM
NC(N)=Nc1nc(CSCC/C(N)=N/S(N)(=O)=O)cs1 [Famotidine]: > 45.8 µM

Look up and state reported IC50 cell viability for CC#C[C@]1(O)CC[C@H]2[C@@H]3C[C@H](C)C4=CC(=O)CC[C@]4(C)[C@H]3CC[C@@]21C [Dimethisteron] > 45.8 µM

Look up and state reported IC50 cell viability for Cc1cccc(C)c1OCC(=O)N[C@@H](Cc1ccccc1)[C@@H](O)C[C@H](Cc1ccccc1)NC(=O)[C@H](C(C)C)N1CCCNC1=O [Lopinavir] 29.1 µM

Look up and state reported IC50 cell viability for CC(N/C(=N\C#N)Nc1ccncc1)C(C)(C)C (centres undefined) [PINACIDIL] > 45.8 µM

Look up and state reported IC50 cell viability for COc1ccc(C(C)(C)C)cc1CN[C@H]1C2CCN(CC2)[C@H]1C(c1ccccc1)c1ccccc1 [Maropitant] 18.3 µM

Look up and state reported IC50 cell viability for O=C1c2c(O)cccc2Cc2cccc(O)c21 [Anthralin] > 45.8 µM

Look up and state reported IC50 cell viability for N=C(N)NCCC[C@@H](N)C(=O)N[C@@H](CCCNC(=N)N)C(=O)N1CCC[C@H]1C(=O)N1C[C@H](O)C[C@H]1C(=O)NCC(=O)N[C@@H](Cc1cccs1)C(=O)N[C@@H](CO)C(=O)N1Cc2ccccc2C[C@@H]1C(=O)N1[C@H](C(=O)N[C@@H](CCCNC(=N)N)C(=O)O)C[C@@H]2CCCC[C@@H]21 [Icatibant] > 45.8 µM

Look up and state reported IC50 cell viability for C[C@]12CCC(=O)C=C1CC[C@H]1[C@@H]3CC[C@](O)(C(=O)CO)[C@@]3(C)C[C@H](O)[C@@]12F [Fludrocortisone] > 45.8 µM

Look up and state reported IC50 cell viability for CCCC(=O)Nc1c(I)cc(I)c(CC(CC)C(=O)O)c1I (centres undefined) [Sodium tyropanoate] > 45.8 µM

Look up and state reported IC50 cell viability for CC=CC1=C(C(=O)O)N2C(=O)[C@@H](NC(=O)[C@H](N)c3ccc(O)cc3)[C@H]2SC1 [Cefprozil] > 45.8 µM

Look up and state reported IC50 cell viability for CC(C)(C)NC[C@H](O)COc1cccc2c1CCCC2=O [Levobunolol hydrochloride] > 45.8 µM

Look up and state reported IC50 cell viability for CC(=O)[C@H]1CC[C@H]2[C@@H]3C[C@H](C)C4=CC(=O)CC[C@]4(C)[C@H]3[C@@H](O)C[C@]12C [Medrysone] > 45.8 µM

Look up and state reported IC50 cell viability for O=P1(N(CCCl)CCCl)NCCCO1 (centres undefined) [Cyclophosphamide] > 45.8 µM

Look up and state reported IC50 cell viability for CC(=O)N(CC(C)C(=O)O)c1c(I)cc(I)c(N)c1I (centres undefined) [Iocetamic acid] > 45.8 µM

Look up and state reported IC50 cell viability for Cn1c(=O)c2c(ncn2C)n(C)c1=O [Caffeine] > 45.8 µM
